# tested on: UniProt:P08588
# Sequence (P08588 whole entry): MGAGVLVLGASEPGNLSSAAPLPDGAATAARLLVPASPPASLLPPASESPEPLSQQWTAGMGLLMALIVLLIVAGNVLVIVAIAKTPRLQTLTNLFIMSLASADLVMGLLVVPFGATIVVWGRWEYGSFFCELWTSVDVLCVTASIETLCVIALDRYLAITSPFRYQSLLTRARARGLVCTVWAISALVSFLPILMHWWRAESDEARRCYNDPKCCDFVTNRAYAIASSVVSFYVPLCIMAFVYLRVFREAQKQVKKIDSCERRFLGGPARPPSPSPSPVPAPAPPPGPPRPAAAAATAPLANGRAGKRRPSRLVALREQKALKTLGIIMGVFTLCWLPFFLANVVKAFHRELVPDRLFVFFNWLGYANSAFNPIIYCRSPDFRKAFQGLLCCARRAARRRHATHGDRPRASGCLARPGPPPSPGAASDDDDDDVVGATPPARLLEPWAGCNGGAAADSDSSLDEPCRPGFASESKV
# procedure details: Agonistic activity was determined by measuring cAMP accumulation in CHO cells expressing cloned human Beta-1 adrenergic receptor
observed property: EC50 (µM)

Examples from the recorded data:
{"mol": "C[C@H](Cc1c[nH]c2ccccc12)NC[C@H](O)c1cccc(NS(=O)(=O)c2cccs2)c1", "EC50 (µM)": 0.066}
{"mol": "C[C@H](Cc1c[nH]c2c(OS(=O)(=O)c3cccnc3)cccc12)NC[C@H](O)c1cccc(NS(=O)(=O)c2cccs2)c1", "EC50 (µM)": 0.022}
{"mol": "C[C@H](Cc1c[nH]c2c(OS(=O)(=O)c3ccccc3)cccc12)NC[C@H](O)c1cccc(NS(=O)(=O)c2cccs2)c1", "EC50 (µM)": 0.072}

[a] C[C@H](Cc1c[nH]c2c(OS(=O)(=O)c3cccs3)cccc12)NC[C@H](O)c1cccc(NS(=O)(=O)c2cccs2)c1
[b] C[C@H](Cc1c[nH]c2c(OCCN)cccc12)NC[C@H](O)c1cccc(NS(=O)(=O)c2cccs2)c1
Given the listed items, does a or b have the lesser reported EC50? Reply briefly: the label of your chosen item. b
(b: 0.029 µM, a: 0.049 µM)
